System: adult housefly
Experiment: Adult houseflies fed on serum of dosed guinea pigs
Type: in vivo, Musca domestica
Conditions: guinea pig, 5 mg./kg. i.p., serum at 24 hours
Structures can show the parent of a compound that is named as a salt.
result type: Efficacy Rating, Adult Housefly

{"compound": "O=[N+]([O-])c1cc(C(F)(F)F)cc2c1NC(O)(C(F)(F)C(F)F)N2 (stereo not shown) [Example 8, Lithium Salt]", "result": "5 (100% dead)"}
{"compound": "CC(C)OC1(C(F)(F)C(F)F)Nc2cc(C(F)(F)F)cc([N+](=O)[O-])c2N1 (stereo not shown) [Example 4, Potassium Salt]", "result": "5 (100% dead)"}
{"compound": "O=[N+]([O-])c1cc(C(F)(F)F)cc2c1NC(O)(C(F)(F)C(F)F)N2 (stereo not shown) [Example 6, Calcium Salt]", "result": "5 (100% dead)"}
{"compound": "O=[N+]([O-])c1cc(Cl)cc2c1NC(O)(C(F)F)N2 (stereo not shown) [Example 5, Calcium Salt]", "result": "1 (<50% dead)"}
